Target Entity: Mitogen-activated protein kinase 1 (Homo sapiens);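 further: reported figure is an averaged percent inhibition of the kinase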
Conditions Used: at 0.1 µM
Measured Property: inhibition (%)
Write it as a number; the unit % goes unstated.

Fc1cccc(COc2ccc(Nc3ncnc4sc(-c5cccs5)cc34)cc2Cl)c1; 2.17
COc1cc2ncn(-c3cc(O[C@@H](C)c4ccccc4Cl)c(C(N)=O)s3)c2cc1OC; 5.66
CS(=O)(=O)CCNCc1ccc(-c2ccc3ncnc(Nc4ccc(OCc5ccccc5)c(Cl)c4)c3c2)o1; 2.06
COc1ccc(-c2ccncc2)cc1C(N)=O; 5.23
NC(=O)c1ccc(-c2nc(-c3ccccn3)c(-c3ccc4c(c3)OCO4)[nH]2)cc1; 2.52

Please turn your attention to the following entry.
Entry CS(=O)(=O)CCN(CC#N)Cc1ccc(-c2ccc3ncnc(Nc4ccc(OCc5cccc(F)c5)c(Cl)c4)c3c2)o1 , tested on Mitogen-activated protein kinase 1 (Homo sapiens), has a reported inhibition of 3.93

---

Listed here are compounds together with their documented inhibition.
Target Entity: Epidermal growth factor receptor (Homo sapiens)
Conditions Used: at 0.1 µM
Description: GSK_PKIS: EGFR mean inhibition at 0.1 uM [Nanosyn]
Write it as a number; the unit % goes unstated.

Example compounds with recorded inhibition:
COc1ccc(-c2nn3ncccc3c2-c2ccnc(Nc3ccc(Cl)c(C(F)(F)F)c3)n2)cc1; 0.68
O=C1NC(=O)C(c2cccc(Cl)c2)=C1Nc1ccc(O)c(Cl)c1; -0.21
Nc1ncnc2occ(-c3ccc(NC(=O)Nc4cc(C(F)(F)F)cc(C(F)(F)F)c4)cc3)c12; 0.56
CC(C)=Cc1cccc2c1/C(=N/Nc1ccc(S(N)(=O)=O)cc1)C(=O)N2; 2.03

# inhibition of CCn1c(-c2nonc2N)nc2c(C#CC(C)(C)O)nc(OC[C@@H](N)c3ccccc3)cc21 = 0.44

# inhibition of CCn1c(-c2nonc2N)nc2ccncc21 = 0.86

# inhibition of Cc1nnc(-c2ccc(C)c(-c3ccc(C(=O)Nc4cccc(C#N)c4)cc3)c2)o1 = 6.74

# inhibition of COc1cc(C=NNc2ncnc3c2cnn3-c2ccccc2)ccc1O = 6.29

# inhibition of CS(=O)(=O)CCN(CC#N)Cc1ccc(-c2ccc3ncnc(Nc4ccc(OCc5cccc(F)c5)c(Cl)c4)c3c2)o1 = 69.4

# inhibition of COc1ccccc1Nc1ncc(-c2ccccc2)o1 = 1.13

---

Target Entity: NT-3 growth factor receptor (Homo sapiens);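 further: mean percent inhibition of TRKC, reported within the GSK PKIS dataset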
Conditions Used: at 0.1 µM
Measured Property: inhibition (%)
Write it as a number; the unit % goes unstated.

Example molecules with recorded inhibition:
CS(=O)(=O)Nc1ccc(N/C=C2\C(=O)Nc3ccccc32)cc1; 14.1
COc1cc2c(cc1Nc1nc(N3CCc4ccccc43)c3cc[nH]c3n1)N(C(=O)CN(C)C)CC2; -1.19
O=C1NC(=O)C(N2CCc3ccccc32)=C1c1ccc(Cl)cc1; 2.99
COc1cccc(-n2ncc3c(N/N=C/c4cccc(F)c4)ncnc32)c1; 2.97
COc1cc2ncn(-c3cc(O[C@H](C)c4ccccc4Cl)c(C(N)=O)s3)c2cc1OC; 16.1
COc1cc(C)c(NC(=O)CN(C)C)cc1Nc1nc(Nc2cccc(F)c2C(N)=O)c2cc[nH]c2n1; 2.83

# inhibition of Nc1ncnc2occ(-c3ccc(NC(=O)Nc4cccc(C(F)(F)F)c4)cc3)c12 = 58.9

# inhibition of NCc1ccc(-c2nc(-c3ccc(Cl)c(O)c3)c(-c3ccncc3)[nH]2)cc1 = -0.91

# inhibition of Cc1ccc(NC(=O)c2ccnc(N3CCCC3)c2)cc1-c1ccc(C(=O)NCC2CC2)cc1 = 3.16

# inhibition of CCn1c(-c2nonc2N)nc2cncc(C(=O)N3CC[C@H](N)C3)c21 = 2.56

# inhibition of CCCN1CCC=C(c2ccc(Nc3nc(Nc4ccccc4C(N)=O)c4cc[nH]c4n3)c(C)c2)C1 = 2.46

# inhibition of NC(=O)c1ccc(-c2nc(-c3ccccn3)c(-c3ccc4c(c3)OCO4)[nH]2)cc1 = 0.44

# inhibition of COc1cc2ncn(-c3cc(O[C@@H](C)c4ccccc4Cl)c(C(N)=O)s3)c2cc1OC = 6.76
